For each record, write down the corresponding GI50.
- Test system: KM-20L2
- Assay Overview: NCI tumour cell line growth inhibition, 48 h
Active and inactive are the calls of the source. Cut-off read from the data, not from the text of the source: active = GI50 up to about 1.1 µM and inactive = higher.

-- ask Query the reported GI50 for KM-20L2; item: CN(C)CCC(/C=C/c1ccccc1)=N\Nc1ccc(Cl)c(Cl)c1
-- reply 2.02 µM (inactive)

-- ask Query the reported GI50 for KM-20L2; item: NC(N)NCCCc1cn2c(n1)C1CCCN1C(=O)C2Cc1ccccc1 (centres undefined)
-- reply > 100 µM (inactive)

-- ask Query the reported GI50 for KM-20L2; item: Cc1ccc(S(=O)(=O)OC2CS[S+]([O-])CC2OS(=O)(=O)c2ccc(C)cc2)cc1 (centres undefined)
-- reply 17.7 µM (inactive)

-- ask Query the reported GI50 for KM-20L2; item: CCCNCCCCC(NC(C)=O)C(=O)NCc1ccccc1 (centres undefined)
-- reply > 100 µM (inactive)

-- ask Query the reported GI50 for KM-20L2; item: CCCc1n[nH]c(CCC(=O)N(Cc2ccccc2)Cc2ccccc2)c1CC
-- reply > 100 µM (inactive)

-- ask Query the reported GI50 for KM-20L2; item: CS(=O)(=O)CS(=O)(=O)OCCCl
-- reply 565 µM (inactive)

-- ask Query the reported GI50 for KM-20L2; item: CC(C)c1ccccc1NC(=O)CCc1n[nH]c(=S)o1
-- reply > 100 µM (inactive)

-- ask Query the reported GI50 for KM-20L2; item: COc1cc(CCc2ccncc2)cc(OC)c1OC
-- reply > 100 µM (inactive)

-- ask Query the reported GI50 for KM-20L2; item: COc1cc2c(cc1OC)C1Cc3cc(OC)c(OC)cc3N1CC2 (centres undefined)
-- reply 38.6 µM (inactive)

-- ask Query the reported GI50 for KM-20L2; item: CCOC(=O)C12CCCC1(O)N(NC(=O)OC(C)(C)C)C(C)=C2C(=O)OC (centres undefined)
-- reply > 100 µM (inactive)

-- ask Query the reported GI50 for KM-20L2; item: O=S(=O)(N/N=C/c1ccc(Cl)cc1Cl)c1ccccc1
-- reply 85.1 µM (inactive)

-- ask Query the reported GI50 for KM-20L2; item: Nc1nc(Cl)nc2c1ncn2C1CC(O)C(CO)O1 (centres undefined)
-- reply 2.42 µM (inactive)

-- ask Query the reported GI50 for KM-20L2; item: Cc1ccc(C2=Nc3ccccc3[S+]([O-])C(c3ccc4c(c3)OCO4)C2)cc1 (centres undefined)
-- reply 17.4 µM (inactive)

-- ask Query the reported GI50 for KM-20L2; item: C/C(CC(=O)Nc1ccc([N+](=O)[O-])cc1)=N\NC(N)=O
-- reply > 64.9 µM (inactive)

-- ask Query the reported GI50 for KM-20L2; item: Cn1c(=O)oc2cc(C3CCC(=O)N3Cc3csc(-c4ccccc4)n3)ccc21 (centres undefined)
-- reply > 100 µM (inactive)

-- ask Query the reported GI50 for KM-20L2; item: CCOC(=O)Cc1csc(Nc2ccccc2[N+](=O)[O-])n1
-- reply > 100 µM (inactive)

-- ask Query the reported GI50 for KM-20L2; item: CCOC(=O)N1N=NC2C3OC(C[C@@]3(C#N)OC(C)=O)[C@H]21 (some centres undefined)
-- reply > 100 µM (inactive)

-- ask Query the reported GI50 for KM-20L2; item: Cc1occ2c1C(=O)CC1C2[C@@H](O)CC2C(C)(C)CCC[C@]12C (some centres undefined)
-- reply > 100 µM (inactive)

-- ask Query the reported GI50 for KM-20L2; item: C=CCNC(=S)N1CC(C)C(=O)Nc2ccccc21 (centres undefined)
-- reply > 100 µM (inactive)

-- ask Query the reported GI50 for KM-20L2; item: CCOC(=O)c1[nH]c2cc(OC)c(OC)cc2c1CN(C)C
-- reply > 100 µM (inactive)

-- ask Query the reported GI50 for KM-20L2; item: C=C[C@]1(C)CCC2=C(CCC3C2(C)CCC[C@]3(C)CO)C1 (some centres undefined)
-- reply 20.2 µM (inactive)

-- ask Query the reported GI50 for KM-20L2; item: CC(C)(C)c1ccc2c(c1)OP1(Oc3c(Cl)cc(Cl)c4cccnc34)(O2)Oc2ccc(C(C)(C)C)cc2O1
-- reply 4.92 µM (inactive)

-- ask Query the reported GI50 for KM-20L2; item: COC(=O)C(Cc1ccccc1)NC(=O)Cn1ccnc1[N+](=O)[O-] (centres undefined)
-- reply > 100 µM (inactive)

-- ask Query the reported GI50 for KM-20L2; item: COc1ccc2c[n+](C)c3c4cc(OC)c(OC)cc4ccc3c2c1
-- reply 3.52 µM (inactive)

-- ask Query the reported GI50 for KM-20L2; item: O=C(/C=C/c1ccccc1)NC1C=Nc2ccc([N+](=O)[O-])cc2NC1=O (centres undefined)
-- reply 23.3 µM (inactive)

-- ask Query the reported GI50 for KM-20L2; item: CN(C)c1n/c(=N/c2ccc3ccccc3c2)ss1
-- reply 29.6 µM (inactive)

-- ask Query the reported GI50 for KM-20L2; item: CCCCCC[C@@H]1CCC2C(CO)[C@@H](O)CC[C@@H]2C1 (some centres undefined)
-- reply 18.4 µM (inactive)

-- ask Query the reported GI50 for KM-20L2; item: O=[N+]([O-])C(=C1c2ccccc2-c2ccccc21)[N+](=O)[O-]
-- reply 57.3 µM (inactive)

-- ask Query the reported GI50 for KM-20L2; item: COc1ccc(/C=C/c2cc(OC)c(OC(C)=O)c(OC)c2)cc1
-- reply 35.1 µM (inactive)

* * *

For each record, write down the corresponding GI50.
- Tested on: SNB-75
- Assay Overview: NCI tumour cell line growth inhibition, 48 h
The source made the active and inactive calls. Rule as the data show it: active = GI50 up to about 1.1 µM and inactive = higher.

-- ask Suppose we examine the compound COc1ccc(C(=O)/C=C/c2ccc(OCC(=O)O)cc2)cc1 ; what GI50 value has been reported?
-- reply > 100 µM (inactive)

-- ask Suppose we examine the compound O=[N+]([O-])c1ccc2oc(=N/c3ccccc3)/c(=N\c3ccccc3)[nH]c2c1 ; what GI50 value has been reported?
-- reply 18 µM (inactive)

-- ask Suppose we examine the compound N#CCc1ccc(C(C#N)/C(CCCC(=O)Nc2cccc([N+](=O)[O-])c2)=N\NC(=O)NN)cc1 (stereo not given) ; what GI50 value has been reported?
-- reply > 100 µM (inactive)

-- ask Suppose we examine the compound C=C(C(=C)P(=S)(C(C)C)C(C)C)P(=S)(C(C)C)C(C)C ; what GI50 value has been reported?
-- reply > 100 µM (inactive)

-- ask Suppose we examine the compound Cc1ccc(S(=O)(=O)NNC(=S)Nc2cccc3ccccc23)cc1 ; what GI50 value has been reported?
-- reply 27.9 µM (inactive)

* * *

- Test system: UACC-62
- Assay Overview: NCI tumour cell line growth inhibition, 48 h
Activity calls are given as the source filed them. No stated cut-off is given here; in the data, active = GI50 up to about 1.1 µM and inactive = higher.
The reply should name one outcome from True (active), False (inactive)

-- ask Could you please tell me the result logged for S=C(N1CCN(c2cccc(Cl)c2)CC1)N1CCN(c2cccc(Cl)c2)CC1 in this assay?
-- reply False

-- ask Could you please tell me the result logged for Cc1ccc(C2=Nc3ccccc3[S+]([O-])C(c3ccc4c(c3)OCO4)C2)cc1 (configuration not stated) in this assay?
-- reply False

-- ask Could you please tell me the result logged for Cc1ccc(S(=O)(=O)NNC(=O)Nc2ccc(Cl)cc2)cc1 in this assay?
-- reply False

-- ask Could you please tell me the result logged for CN(Cc1cccc2ccsc12)/N=C\c1ccc(Cl)cc1 in this assay?
-- reply False

-- ask Could you please tell me the result logged for COc1cc(C2S/C(=C/c3ccccc3)C(=O)N2c2ccccc2Cl)cc(OC)c1OC (configuration not stated) in this assay?
-- reply False

-- ask Could you please tell me the result logged for CN(C)CCC(/C=C/c1ccccc1)=N\Nc1ccc(Cl)c(Cl)c1 in this assay?
-- reply False

-- ask Could you please tell me the result logged for CSC(C1c2ccccc2N(c2ccc(C)cc2)C2=NC(=O)N(C)C(=O)C21Cl)S(=O)(=O)c1ccc(C)cc1 (configuration not stated) in this assay?
-- reply False

-- ask Could you please tell me the result logged for S=C1NCCN1C(=S)NC1CCCCC1 in this assay?
-- reply False

-- ask Could you please tell me the result logged for CN(C(=O)Cc1cccc(N=C=S)c1)[C@H]1CCCC[C@@H]1N1CCCC1 in this assay?
-- reply False

-- ask Could you please tell me the result logged for CCN(C(=S)N[C@H](C(=O)N[C@@H](C)C(=O)OC)C(C)C)c1ccccc1 in this assay?
-- reply False

-- ask Could you please tell me the result logged for Cc1cc(O)nc(NN2C(Cl)C(=O)C2c2cccc(Cl)c2)n1 (configuration not stated) in this assay?
-- reply False

-- ask Could you please tell me the result logged for CCOC(=O)/C(Cl)=C(\C)Nc1nc2c(ccc3ccccc32)s1 in this assay?
-- reply False

-- ask Could you please tell me the result logged for COC(OC)[C@@H]1OC[C@H](n2cnc3c(N)ncnc32)[C@H]1O in this assay?
-- reply False

-- ask Could you please tell me the result logged for COc1ccc2nc(-n3c(/C=C/c4ccccc4O)nc4ccccc4c3=O)sc2c1 in this assay?
-- reply False

-- ask Could you please tell me the result logged for O=C(N/C(=C\c1ccc(/C=C(\NC(=O)c2ccccc2)c2nc3ccccc3[nH]2)cc1)c1nc2ccccc2[nH]1)c1ccccc1 in this assay?
-- reply False

-- ask Could you please tell me the result logged for CCc1cccc(C)c1NC(=O)CCc1n[nH]c(=S)o1 in this assay?
-- reply False

-- ask Could you please tell me the result logged for Cc1ccc(S(=O)(=O)OC2CS[S+]([O-])CC2OS(=O)(=O)c2ccc(C)cc2)cc1 (configuration not stated) in this assay?
-- reply False

-- ask Could you please tell me the result logged for O=C(/C=C/c1ccc(Cl)cc1)c1ccncc1 in this assay?
-- reply False

-- ask Could you please tell me the result logged for N#Cc1nc(C2OC(COC(=O)c3ccccc3)C(OC(=O)c3ccccc3)C2OC(=O)c2ccccc2)oc1N (configuration not stated) in this assay?
-- reply False

-- ask Could you please tell me the result logged for O=C1C(Cl)C2(CC(/C=C/c3ccccc3Cl)=NN2c2cccc(S(=O)(=O)O)c2)N1c1nc2ccccc2s1 (configuration not stated) in this assay?
-- reply False

-- ask Could you please tell me the result logged for COC1/C=C/C(C)C(C(C)C(OC)C(C)CCC(=O)C(C)C(CC(=O)O)OC)OC(=O)/C=C/C=C(\C)CC(OC)CC2=CC(=O)O[C@H](C2)C(C)C(OC)CC(OC)/C=C/C(C)C(OC)C1 (some centres not stated) in this assay?
-- reply True

-- ask Could you please tell me the result logged for CCCC(CCN)(CCN)[N+](=O)[O-] in this assay?
-- reply False

-- ask Could you please tell me the result logged for O=Cc1ccccc1CCn1c(=O)c2cc3c(=O)n(CCc4ccccc4C=O)c(=O)c3cc2c1=O in this assay?
-- reply False

-- ask Could you please tell me the result logged for Nc1ccn(C2OC(COP(=O)(O)O)C(O)C2O)c(=O)n1 (configuration not stated) in this assay?
-- reply False

-- ask Could you please tell me the result logged for COc1ccc(Cn2c3c(cc(OC(C)=O)c2=O)Cc2ccccc2-3)cc1 in this assay?
-- reply False

-- ask Could you please tell me the result logged for N/N=C(\CCN1CCCC1)CC(c1ccccc1)c1c(O)c2ccccc2oc1=O (configuration not stated) in this assay?
-- reply False

-- ask Could you please tell me the result logged for C=CCNC(=S)N1CC(C)C(=O)Nc2ccccc21 (configuration not stated) in this assay?
-- reply False

-- ask Could you please tell me the result logged for NC(=S)C1=C(N)Oc2c(c(=O)oc3ccccc23)C1c1ccc(Br)cc1 (configuration not stated) in this assay?
-- reply False

-- ask Could you please tell me the result logged for COc1cc2c(cc1O)N=C[C@@H]1CC[C@@H](O)N1C2=O.COc1cc2c(cc1O)N=C[C@@H]1CC[C@H](O)N1C2=O in this assay?
-- reply True

-- ask Could you please tell me the result logged for Nc1nc(=O)n(C2CC(O)C(CO)O2)c2nc(-c3ccc(-c4ccccc4)cc3)cnc12 (configuration not stated) in this assay?
-- reply False

-- ask Could you please tell me the result logged for CCOC(=O)C12CCCC1(O)N(NC(=O)OC(C)(C)C)C(C)=C2C(=O)OC (configuration not stated) in this assay?
-- reply False

-- ask Could you please tell me the result logged for CC1CC[C@@]2(OC1)OC1C[C@H]3[C@@H]4CC[C@H]5CC(OC6OC(CO)C(O)C(OC7OC(CO)C(OC8OC(CO)C(O)C(OC9OC(CO)C(O)C(O)C9O)C8OC8OC(CO)C(O)C(O)C8O)C(O)C7O)C6O)[C@H](O)CC5(C)[C@H]4CCC3(C)C1[C@@H]2C (some centres not stated) in this assay?
-- reply False

-- ask Could you please tell me the result logged for CC(=O)O[C@@H]1C2=C(C)C=C(O2)[C@H]2O[C@]2(C)C[C@H]2C=C(C(=O)O2)[C@H](OC(C)=O)CC1[C@@]1(C)CO1 (some centres not stated) in this assay?
-- reply False

-- ask Could you please tell me the result logged for CCOC(=O)c1c(CN2CCCC2)n(-c2ccccc2)c2cc(Br)c(OC)cc12 in this assay?
-- reply False

-- ask Could you please tell me the result logged for C/C1=C\CC[C@@]2(C)O[C@@H]2C[C@@H]2[C@H](C/C(C)=C/CC1)OC(=O)C21CC1 in this assay?
-- reply False

-- ask Could you please tell me the result logged for CN(C)c1n/c(=N/c2ccc3ccccc3c2)ss1 in this assay?
-- reply False

-- ask Could you please tell me the result logged for CN(C)C1C(CO)OC(n2cnc3c(N)ncnc32)C1O (configuration not stated) in this assay?
-- reply False
